Assay: in vivo
Details: Beagle, dog
Form field: half-life (one value per entry).
Numeric only. Scale: min

Smi	Obs Value
Cn1cc(-c2ccc(-c3cncc(Cl)c3N3CCC4(CCNC4=O)CC3)cc2)cn1	42

Turning now to a further compound:
Prompt line: For the compound Cn1ncc2cc(-c3cnc(N)c(Cl)c3N3CCC4(CCNC4=O)CC3)ccc21 , give its reported half-life.
Response line: 59.4

* * *

Form field: clearance (one value per entry).
Test: in vivo
Settings: mouse, plasma
Numeric only. Scale: mL/min/kg

The examples below pair each entry with its known result.
Smi	U	clearance
Cn1cc(-c2ccc(-c3cnc(N)c(Cl)c3N3CCC4(CC3)CNC(=O)O4)cc2)cn1	mL/min/kg	43.2
Cn1cc(-c2ccc(-c3cncc(Cl)c3N3CCC4(CCNC4=O)CC3)cc2)cn1	mL/min/kg	39

Prompt line: For the molecule CN1c2ccc(-c3cncc(Cl)c3N3CCC4(CC3)CNC(=O)O4)cc2CS1(=O)=O , give its reported clearance.
Response line: 81.5

Prompt line: For the molecule Cn1cc(-c2ccc(-c3cncc(Cl)c3N3CCC4(CC3)NC(=O)CNC4=O)cc2)cn1 , give its reported clearance.
Response line: 73.8

Prompt line: For the molecule CN1c2ccc(-c3cnc(N)c(Cl)c3N3CCC4(CC3)CNC(=O)O4)cc2CS1(=O)=O , give its reported clearance.
Response line: 68

* * *

Form field: dose excreted (one value per entry).
Assay: in vivo
Conditions: mouse, faeces

Smi	Endpoint	Obs Value
Cn1cc(-c2ccc(-c3cnc(N)c(Cl)c3N3CCC4(CC3)CNC(=O)O4)cc2)cn1	dose excreted	< 1%
CN1c2ccc(-c3cncc(Cl)c3N3CCC4(CC3)CNC(=O)O4)cc2CS1(=O)=O	dose excreted	< 1%

Prompt line: For the compound Cn1cc(-c2ccc(-c3cncc(Cl)c3N3CCC4(CCNC4=O)CC3)cc2)cn1 , give its reported dose excreted.
Response line: < 1%

Prompt line: For the compound CN1c2ccc(-c3cnc(N)c(Cl)c3N3CCC4(CC3)CNC(=O)O4)cc2CS1(=O)=O , give its reported dose excreted.
Response line: < 1%

Prompt line: For the compound Cn1cc(-c2ccc(-c3cncc(Cl)c3N3CCC4(CC3)NC(=O)CNC4=O)cc2)cn1 , give its reported dose excreted.
Response line: 24%

* * *

Assay: in vitro
Settings: human, microsomes
Form field: microsomal CLint (one value per entry).
Please format your answer as a value with the unit trailing.

Smi	Obs Value
Cn1cc(-c2ccc(-c3cncc(Cl)c3N3CCC4(CCNC4=O)CC3)cc2)cn1	84 µL/min/mg

Prompt line: For the compound CC(C)n1ncc2cc(-c3cnc(N)c(Cl)c3N3CCC4(CCNC4=O)CC3)ccc21 , give its reported microsomal CLint.
Response line: 202 µL/min/mg

* * *

Assay: in vivo
Details: Wistar, rat
Endpoint: half-life (h)
Numeric only. Scale: h

Prompt line: For the molecule Cn1ncc2cc(-c3cnc(N)c(Cl)c3N3CCC4(CCNC4=O)CC3)ccc21 , give its reported half-life.
Response line: 1.1

* * *

Assay: in vivo
Conditions: mouse, plasma
Endpoint: clearance (mL/min/kg)
Numeric only. Scale: mL/min/kg

Smi	Endpoint	Obs Value
CN1c2ccc(-c3cnc(N)c(Cl)c3N3CCC4(CC3)CNC(=O)O4)cc2CS1(=O)=O	clearance	47.5
Cn1cc(-c2ccc(-c3cnc(N)c(Cl)c3N3CCC4(CC3)CNC(=O)O4)cc2)cn1	clearance	47.3
Cn1cc(-c2ccc(-c3cncc(Cl)c3N3CCC4(CC3)NC(=O)CNC4=O)cc2)cn1	clearance	37
CN1c2ccc(-c3cncc(Cl)c3N3CCC4(CC3)CNC(=O)O4)cc2CS1(=O)=O	clearance	66.7

Prompt line: For the compound Cn1cc(-c2ccc(-c3cncc(Cl)c3N3CCC4(CCNC4=O)CC3)cc2)cn1 , give its reported clearance.
Response line: 38.3
